Assay: activity coefficient (dimensionless); of the first substance listed, at infinite dilution; xn = mol fraction of the nth substance listed
Conditions: 318.15 K; Liquid; Chromatography; x1 = 0
Give measured activity coefficient for each item. Keep answers brief.
Quick one: just the number, no unit, thanks!

Ask: Looking for the measured activity coefficient of C#CCCCCCC [1-octyne] + CCCCCCCCCCCCCC[P+](CCCCCC)(CCCCCC)CCCCCC.O=S(=O)([N-]S(=O)(=O)C(F)(F)F)C(F)(F)F , can you help?
Reply: 0.63

Ask: Looking for the measured activity coefficient of CCCO [propan-1-ol] + CCCCCCCCCCCCCC[P+](CCCCCC)(CCCCCC)CCCCCC.O=S(=O)([N-]S(=O)(=O)C(F)(F)F)C(F)(F)F , can you help?
Reply: 1.38

Ask: Looking for the measured activity coefficient of C=CCCCC [hex-1-ene] + CCCCCCCCCCCCCC[P+](CCCCCC)(CCCCCC)CCCCCC.O=S(=O)([N-]S(=O)(=O)C(F)(F)F)C(F)(F)F , can you help?
Reply: 0.97

Ask: Looking for the measured activity coefficient of CCCCC [pentane] + CCCCCCCCCCCCCC[P+](CCCCCC)(CCCCCC)CCCCCC.O=S(=O)([N-]S(=O)(=O)C(F)(F)F)C(F)(F)F , can you help?
Reply: 1.02

Ask: Looking for the measured activity coefficient of CCCCCCCC [octane] + CCCCCCCCCCCCCC[P+](CCCCCC)(CCCCCC)CCCCCC.O=S(=O)([N-]S(=O)(=O)C(F)(F)F)C(F)(F)F , can you help?
Reply: 1.46

Ask: Looking for the measured activity coefficient of CCCCCC [hexane] + CCCCCCCCCCCCCC[P+](CCCCCC)(CCCCCC)CCCCCC.O=S(=O)([N-]S(=O)(=O)C(F)(F)F)C(F)(F)F , can you help?
Reply: 1.17

====

Assay: activity coefficient (dimensionless); of the first substance listed, at infinite dilution; xn = mol fraction of the nth substance listed
Details: 313.15 K; Liquid; Chromatography; x1 = 0
Measured Quantity: activity coefficient
Quick one: just the number, no unit, thanks!

Ask: Looking for the measured activity coefficient of C=CCCCC [hex-1-ene] + CCCCCCCCCCCCCC[P+](CCCCCC)(CCCCCC)CCCCCC.O=S(=O)([N-]S(=O)(=O)C(F)(F)F)C(F)(F)F , can you help?
Reply: 0.92

Ask: Looking for the measured activity coefficient of CO [methanol] + CCCCCCCCCCCCCC[P+](CCCCCC)(CCCCCC)CCCCCC.O=S(=O)([N-]S(=O)(=O)C(F)(F)F)C(F)(F)F , can you help?
Reply: 1.23

Ask: Looking for the measured activity coefficient of C=CCCC [1-pentene] + CCCCCCCCCCCCCC[P+](CCCCCC)(CCCCCC)CCCCCC.O=S(=O)([N-]S(=O)(=O)C(F)(F)F)C(F)(F)F , can you help?
Reply: 0.82

====

Assay: activity coefficient (dimensionless); of the first substance listed, at infinite dilution; xn = mol fraction of the nth substance listed
Conditions: 303.15 K; Liquid; Chromatography; x1 = 0
Give measured activity coefficient for each item. Keep answers brief.
Quick one: just the number, no unit, thanks!

Ask: Looking for the measured activity coefficient of C=CCCC [1-pentene] + CCCCCCCCCCCCCC[P+](CCCCCC)(CCCCCC)CCCCCC.O=S(=O)([N-]S(=O)(=O)C(F)(F)F)C(F)(F)F , can you help?
Reply: 0.78

Ask: Looking for the measured activity coefficient of CCCCCCC [heptane] + CCCCCCCCCCCCCC[P+](CCCCCC)(CCCCCC)CCCCCC.O=S(=O)([N-]S(=O)(=O)C(F)(F)F)C(F)(F)F , can you help?
Reply: 1.26

Ask: Looking for the measured activity coefficient of CO [methanol] + CCCCCCCCCCCCCC[P+](CCCCCC)(CCCCCC)CCCCCC.O=S(=O)([N-]S(=O)(=O)C(F)(F)F)C(F)(F)F , can you help?
Reply: 1.26

Ask: Looking for the measured activity coefficient of CCCO [propan-1-ol] + CCCCCCCCCCCCCC[P+](CCCCCC)(CCCCCC)CCCCCC.O=S(=O)([N-]S(=O)(=O)C(F)(F)F)C(F)(F)F , can you help?
Reply: 1.42

Ask: Looking for the measured activity coefficient of C1CCCCC1 [cyclohexane] + CCCCCCCCCCCCCC[P+](CCCCCC)(CCCCCC)CCCCCC.O=S(=O)([N-]S(=O)(=O)C(F)(F)F)C(F)(F)F , can you help?
Reply: 0.78

Ask: Looking for the measured activity coefficient of C=CCCCCC [1-heptene] + CCCCCCCCCCCCCC[P+](CCCCCC)(CCCCCC)CCCCCC.O=S(=O)([N-]S(=O)(=O)C(F)(F)F)C(F)(F)F , can you help?
Reply: 1

Ask: Looking for the measured activity coefficient of C=CCCCC [hex-1-ene] + CCCCCCCCCCCCCC[P+](CCCCCC)(CCCCCC)CCCCCC.O=S(=O)([N-]S(=O)(=O)C(F)(F)F)C(F)(F)F , can you help?
Reply: 0.88

Ask: Looking for the measured activity coefficient of C1CCCCCC1 [cycloheptane] + CCCCCCCCCCCCCC[P+](CCCCCC)(CCCCCC)CCCCCC.O=S(=O)([N-]S(=O)(=O)C(F)(F)F)C(F)(F)F , can you help?
Reply: 0.88

Ask: Looking for the measured activity coefficient of CCO [ethanol] + CCCCCCCCCCCCCC[P+](CCCCCC)(CCCCCC)CCCCCC.O=S(=O)([N-]S(=O)(=O)C(F)(F)F)C(F)(F)F , can you help?
Reply: 1.36

Ask: Looking for the measured activity coefficient of C#CCCCC [1-hexyne] + CCCCCCCCCCCCCC[P+](CCCCCC)(CCCCCC)CCCCCC.O=S(=O)([N-]S(=O)(=O)C(F)(F)F)C(F)(F)F , can you help?
Reply: 0.66

Ask: Looking for the measured activity coefficient of C#CCCCCCC [1-octyne] + CCCCCCCCCCCCCC[P+](CCCCCC)(CCCCCC)CCCCCC.O=S(=O)([N-]S(=O)(=O)C(F)(F)F)C(F)(F)F , can you help?
Reply: 0.53

Ask: Looking for the measured activity coefficient of c1ccccc1 [benzene] + CCCCCCCCCCCCCC[P+](CCCCCC)(CCCCCC)CCCCCC.O=S(=O)([N-]S(=O)(=O)C(F)(F)F)C(F)(F)F , can you help?
Reply: 0.38

====

Assay: activity coefficient (dimensionless); of the first substance listed, at infinite dilution; xn = mol fraction of the nth substance listed
Details: 308.15 K; Liquid; Chromatography; x1 = 0
Measured Quantity: activity coefficient

Ask: Looking for the measured activity coefficient of CCCCCCC [heptane] + CCCCCCCCCCCCCC[P+](CCCCCC)(CCCCCC)CCCCCC.O=S(=O)([N-]S(=O)(=O)C(F)(F)F)C(F)(F)F , can you help?
Reply: 1.27

Ask: Looking for the measured activity coefficient of C#CCCCC [1-hexyne] + CCCCCCCCCCCCCC[P+](CCCCCC)(CCCCCC)CCCCCC.O=S(=O)([N-]S(=O)(=O)C(F)(F)F)C(F)(F)F , can you help?
Reply: 0.68

Ask: Looking for the measured activity coefficient of CO [methanol] + CCCCCCCCCCCCCC[P+](CCCCCC)(CCCCCC)CCCCCC.O=S(=O)([N-]S(=O)(=O)C(F)(F)F)C(F)(F)F , can you help?
Reply: 1.24

Ask: Looking for the measured activity coefficient of C#CCCCCC [1-heptyne] + CCCCCCCCCCCCCC[P+](CCCCCC)(CCCCCC)CCCCCC.O=S(=O)([N-]S(=O)(=O)C(F)(F)F)C(F)(F)F , can you help?
Reply: 0.63

Ask: Looking for the measured activity coefficient of C1CCCCC1 [cyclohexane] + CCCCCCCCCCCCCC[P+](CCCCCC)(CCCCCC)CCCCCC.O=S(=O)([N-]S(=O)(=O)C(F)(F)F)C(F)(F)F , can you help?
Reply: 0.8

Ask: Looking for the measured activity coefficient of CCO [ethanol] + CCCCCCCCCCCCCC[P+](CCCCCC)(CCCCCC)CCCCCC.O=S(=O)([N-]S(=O)(=O)C(F)(F)F)C(F)(F)F , can you help?
Reply: 1.33

Ask: Looking for the measured activity coefficient of CCCO [propan-1-ol] + CCCCCCCCCCCCCC[P+](CCCCCC)(CCCCCC)CCCCCC.O=S(=O)([N-]S(=O)(=O)C(F)(F)F)C(F)(F)F , can you help?
Reply: 1.4

Ask: Looking for the measured activity coefficient of C=CCCCCCC [oct-1-ene] + CCCCCCCCCCCCCC[P+](CCCCCC)(CCCCCC)CCCCCC.O=S(=O)([N-]S(=O)(=O)C(F)(F)F)C(F)(F)F , can you help?
Reply: 1.14

Ask: Looking for the measured activity coefficient of CCCCC [pentane] + CCCCCCCCCCCCCC[P+](CCCCCC)(CCCCCC)CCCCCC.O=S(=O)([N-]S(=O)(=O)C(F)(F)F)C(F)(F)F , can you help?
Reply: 0.96

Ask: Looking for the measured activity coefficient of C1CCCCCC1 [cycloheptane] + CCCCCCCCCCCCCC[P+](CCCCCC)(CCCCCC)CCCCCC.O=S(=O)([N-]S(=O)(=O)C(F)(F)F)C(F)(F)F , can you help?
Reply: 0.91

Ask: Looking for the measured activity coefficient of CCCCCC [hexane] + CCCCCCCCCCCCCC[P+](CCCCCC)(CCCCCC)CCCCCC.O=S(=O)([N-]S(=O)(=O)C(F)(F)F)C(F)(F)F , can you help?
Reply: 1.1

Ask: Looking for the measured activity coefficient of C=CCCCCC [1-heptene] + CCCCCCCCCCCCCC[P+](CCCCCC)(CCCCCC)CCCCCC.O=S(=O)([N-]S(=O)(=O)C(F)(F)F)C(F)(F)F , can you help?
Reply: 1.02

Ask: Looking for the measured activity coefficient of C#CCCCCCC [1-octyne] + CCCCCCCCCCCCCC[P+](CCCCCC)(CCCCCC)CCCCCC.O=S(=O)([N-]S(=O)(=O)C(F)(F)F)C(F)(F)F , can you help?
Reply: 0.55

Numbers sourced from the NIST ThermoML archive (doi:10.1021/je800105r).
